molecular target: RET (Homo sapiens); assay: RET kinase inhibition, Caliper screening (fluorescent substrate phosphorylation, electrophoretic separation); conditions: fold of IC50 relative to sunitinib
Sequence (P07949 29-1114, species assumed): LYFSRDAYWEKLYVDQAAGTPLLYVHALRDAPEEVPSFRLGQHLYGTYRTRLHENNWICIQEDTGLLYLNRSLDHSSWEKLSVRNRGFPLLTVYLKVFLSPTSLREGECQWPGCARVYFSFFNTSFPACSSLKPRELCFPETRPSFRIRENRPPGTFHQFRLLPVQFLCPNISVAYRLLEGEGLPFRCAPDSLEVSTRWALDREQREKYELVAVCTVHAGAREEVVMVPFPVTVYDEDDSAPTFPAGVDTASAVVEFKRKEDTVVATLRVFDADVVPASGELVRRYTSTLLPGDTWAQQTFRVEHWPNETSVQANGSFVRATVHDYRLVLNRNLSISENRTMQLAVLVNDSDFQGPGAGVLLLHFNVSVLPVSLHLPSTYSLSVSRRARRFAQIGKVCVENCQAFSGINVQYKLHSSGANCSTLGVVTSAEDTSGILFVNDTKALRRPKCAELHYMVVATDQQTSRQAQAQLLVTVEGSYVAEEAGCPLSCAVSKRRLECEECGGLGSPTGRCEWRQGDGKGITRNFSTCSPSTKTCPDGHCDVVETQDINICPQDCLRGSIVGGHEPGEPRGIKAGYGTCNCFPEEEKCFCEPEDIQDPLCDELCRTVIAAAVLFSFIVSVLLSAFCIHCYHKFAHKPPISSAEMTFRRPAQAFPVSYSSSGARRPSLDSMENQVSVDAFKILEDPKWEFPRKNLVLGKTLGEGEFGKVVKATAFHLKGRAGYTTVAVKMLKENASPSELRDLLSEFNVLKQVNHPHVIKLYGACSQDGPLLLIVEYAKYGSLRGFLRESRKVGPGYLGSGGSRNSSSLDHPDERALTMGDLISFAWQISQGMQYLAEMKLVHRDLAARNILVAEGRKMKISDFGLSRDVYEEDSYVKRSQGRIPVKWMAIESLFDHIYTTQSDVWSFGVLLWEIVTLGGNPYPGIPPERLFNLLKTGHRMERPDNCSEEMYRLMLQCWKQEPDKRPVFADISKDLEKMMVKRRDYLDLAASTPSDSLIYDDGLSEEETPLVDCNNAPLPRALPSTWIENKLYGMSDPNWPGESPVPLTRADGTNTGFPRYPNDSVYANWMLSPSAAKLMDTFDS
Each entry below lists one item and its recorded RET Fold value.
Reply with just the number.

Here are 5 molecules together with their reported answers.
{"columns": ["smiles representation", "reading"],
 "data": [
  ["COCCOCCOCCOCCOCCOCCOCCOCCNC(=O)c1c(C)[nH]c(/C=C2\\C(=O)Nc3ccc(F)cc32)c1C", 23.02],
  ["COCCOCCOCCOCCNC(=O)c1c(C)[nH]c(/C=C2\\C(=O)Nc3ccc(F)cc32)c1C", 8.14],
  ["COCCOCCOCCNC(=O)c1c(C)[nH]c(/C=C2\\C(=O)Nc3ccc(F)cc32)c1C", 5.35],
  ["COCCOCCOCCOCCOCCOCCOCCNC(=O)c1c(C)[nH]c(/C=C2\\C(=O)Nc3ccc(F)cc32)c1C", 14.42],
  ["COCCOCCOCCOCCOCCOCCOCCOCCOCCNC(=O)c1c(C)[nH]c(/C=C2\\C(=O)Nc3ccc(F)cc32)c1C", 20.23]
]}

Kindly consider the entry below.
Kindly note: RET (Homo sapiens), COCCOCCOCCOCCOCCNC(=O)c1c(C)[nH]c(/C=C2\C(=O)Nc3ccc(F)cc32)c1C , RET Fold value reported: 10.23

----------
Each entry below lists one item and its recorded VEGFR-2 AVG % Activity at Specific Concentration value.
molecular target: UniProt P35968; test: VEGFR-2 kinase inhibition, Caliper screening (fluorescent substrate phosphorylation, electrophoretic separation); details: concentration 3.0E−10 (unit not given)
Give just the number in %; leave the unit off.

{"columns": ["smiles representation", "target or test system", "scale unit", "reading"],
 "data": [
  ["COCCOCCOCCOCCOCCOCCOCCOCCOCCNC(=O)c1c(C)[nH]c(/C=C2\\C(=O)Nc3ccc(F)cc32)c1C", "UniProt P35968", "%", 84],
  ["COCCOCCOCCOCCNC(=O)c1c(C)[nH]c(/C=C2\\C(=O)Nc3ccc(F)cc32)c1C", "UniProt P35968", "%", 97],
  ["COCCOCCOCCOCCOCCOCCOCCNC(=O)c1c(C)[nH]c(/C=C2\\C(=O)Nc3ccc(F)cc32)c1C", "UniProt P35968", "%", 94],
  ["COCCOCCOCCNC(=O)c1c(C)[nH]c(/C=C2\\C(=O)Nc3ccc(F)cc32)c1C", "UniProt P35968", "%", 93]
]}

The compound listed as COCCOCCOCCOCCOCCOCCOCCOCCNC(=O)c1c(C)[nH]c(/C=C2\C(=O)Nc3ccc(F)cc32)c1C shows VEGFR-2 AVG % Activity at Specific Concentration equal to 84

----------
Each entry below lists one item and its recorded VEGFR-2 Fold value.
biological target: VEGFR-2 (Homo sapiens, UniProt P35968); experiment: VEGFR-2 kinase inhibition, Caliper screening (fluorescent substrate phosphorylation, electrophoretic separation); conditions: fold of IC50 relative to sunitinib
Sequence (P35968 20-1356, species assumed): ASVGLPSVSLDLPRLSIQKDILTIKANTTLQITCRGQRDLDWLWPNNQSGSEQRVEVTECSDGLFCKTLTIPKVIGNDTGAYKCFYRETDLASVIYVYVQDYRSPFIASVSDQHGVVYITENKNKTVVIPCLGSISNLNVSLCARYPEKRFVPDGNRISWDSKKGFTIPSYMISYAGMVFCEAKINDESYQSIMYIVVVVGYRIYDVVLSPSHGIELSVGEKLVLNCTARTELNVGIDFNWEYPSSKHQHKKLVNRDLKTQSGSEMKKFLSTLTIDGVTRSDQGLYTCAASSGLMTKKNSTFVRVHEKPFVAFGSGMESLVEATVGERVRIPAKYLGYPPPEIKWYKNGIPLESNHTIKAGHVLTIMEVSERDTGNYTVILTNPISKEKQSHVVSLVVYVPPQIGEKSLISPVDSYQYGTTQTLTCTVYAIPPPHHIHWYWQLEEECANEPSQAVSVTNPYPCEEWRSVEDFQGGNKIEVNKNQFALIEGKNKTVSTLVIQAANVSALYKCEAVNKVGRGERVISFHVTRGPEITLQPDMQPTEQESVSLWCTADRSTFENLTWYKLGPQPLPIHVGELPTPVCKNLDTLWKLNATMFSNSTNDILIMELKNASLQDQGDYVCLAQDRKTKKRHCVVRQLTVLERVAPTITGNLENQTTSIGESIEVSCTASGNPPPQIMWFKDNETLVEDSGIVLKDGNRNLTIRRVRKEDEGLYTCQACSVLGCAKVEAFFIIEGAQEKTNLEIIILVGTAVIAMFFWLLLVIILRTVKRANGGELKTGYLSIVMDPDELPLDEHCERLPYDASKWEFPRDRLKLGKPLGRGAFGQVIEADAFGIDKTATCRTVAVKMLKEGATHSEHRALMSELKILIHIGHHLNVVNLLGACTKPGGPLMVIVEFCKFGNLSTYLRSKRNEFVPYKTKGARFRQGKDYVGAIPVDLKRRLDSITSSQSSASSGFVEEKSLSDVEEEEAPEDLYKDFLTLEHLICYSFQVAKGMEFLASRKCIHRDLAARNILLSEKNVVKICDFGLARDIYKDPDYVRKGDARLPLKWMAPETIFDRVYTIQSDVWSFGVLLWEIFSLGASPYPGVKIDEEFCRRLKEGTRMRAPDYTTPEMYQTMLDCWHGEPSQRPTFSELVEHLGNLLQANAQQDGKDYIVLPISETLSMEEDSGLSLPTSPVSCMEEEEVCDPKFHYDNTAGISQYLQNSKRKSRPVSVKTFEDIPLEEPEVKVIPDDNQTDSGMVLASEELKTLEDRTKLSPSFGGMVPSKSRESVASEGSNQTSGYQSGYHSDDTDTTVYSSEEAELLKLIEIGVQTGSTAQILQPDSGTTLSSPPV
Reply with just the number.

Here are 4 molecules together with their reported answers.
{"columns": ["smiles representation", "reading"],
 "data": [
  ["COCCOCCOCCNC(=O)c1c(C)[nH]c(/C=C2\\C(=O)Nc3ccc(F)cc32)c1C", 2.24],
  ["COCCOCCOCCOCCOCCOCCOCCOCCOCCNC(=O)c1c(C)[nH]c(/C=C2\\C(=O)Nc3ccc(F)cc32)c1C", 6.12],
  ["COCCOCCOCCOCCOCCOCCOCCOCCNC(=O)c1c(C)[nH]c(/C=C2\\C(=O)Nc3ccc(F)cc32)c1C", 8.78],
  ["COCCOCCOCCOCCNC(=O)c1c(C)[nH]c(/C=C2\\C(=O)Nc3ccc(F)cc32)c1C", 3.67]
]}

The molecule listed as COCCOCCOCCOCCOCCOCCOCCNC(=O)c1c(C)[nH]c(/C=C2\C(=O)Nc3ccc(F)cc32)c1C shows VEGFR-2 Fold equal to 6.33

----------
target: c-Kit (Homo sapiens); experiment: c-Kit tyrosine kinase inhibition, Caliper screening (fluorescent substrate phosphorylation, electrophoretic separation); type: biochemical; settings: concentration 3.0E−10 (unit not given)
Sequence (P10721 26-976): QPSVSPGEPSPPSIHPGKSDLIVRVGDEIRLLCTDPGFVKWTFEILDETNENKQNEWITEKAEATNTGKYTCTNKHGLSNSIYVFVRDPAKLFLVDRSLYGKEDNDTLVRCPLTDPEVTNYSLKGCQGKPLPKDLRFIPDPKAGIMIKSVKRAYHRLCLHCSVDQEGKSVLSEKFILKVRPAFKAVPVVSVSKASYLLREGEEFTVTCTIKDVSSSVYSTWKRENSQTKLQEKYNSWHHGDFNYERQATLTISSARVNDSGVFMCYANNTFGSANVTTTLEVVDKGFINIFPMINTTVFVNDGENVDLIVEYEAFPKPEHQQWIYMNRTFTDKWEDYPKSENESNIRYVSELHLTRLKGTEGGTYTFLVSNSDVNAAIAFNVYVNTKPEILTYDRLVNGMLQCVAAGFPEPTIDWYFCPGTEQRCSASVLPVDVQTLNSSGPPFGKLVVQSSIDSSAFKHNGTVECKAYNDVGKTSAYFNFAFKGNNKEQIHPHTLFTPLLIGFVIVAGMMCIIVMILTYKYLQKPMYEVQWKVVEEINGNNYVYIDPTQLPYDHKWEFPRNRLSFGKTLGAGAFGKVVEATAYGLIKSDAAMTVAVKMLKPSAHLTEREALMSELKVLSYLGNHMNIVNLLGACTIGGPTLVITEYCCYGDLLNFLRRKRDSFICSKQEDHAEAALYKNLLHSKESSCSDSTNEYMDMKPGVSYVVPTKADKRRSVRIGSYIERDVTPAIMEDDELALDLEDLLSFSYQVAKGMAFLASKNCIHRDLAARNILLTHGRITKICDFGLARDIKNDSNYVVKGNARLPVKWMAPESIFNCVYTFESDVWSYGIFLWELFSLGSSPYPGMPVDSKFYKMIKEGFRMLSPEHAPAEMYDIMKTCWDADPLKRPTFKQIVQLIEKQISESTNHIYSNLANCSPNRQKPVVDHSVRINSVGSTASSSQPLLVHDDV
Each entry below lists one item and its recorded c-Kit AVG % Activity at Specific Concentration value.
Give just the number in %; leave the unit off.

{"columns": ["smiles representation", "reading"],
 "data": [
  ["COCCOCCOCCOCCOCCOCCOCCNC(=O)c1c(C)[nH]c(/C=C2\\C(=O)Nc3ccc(F)cc32)c1C", 96],
  ["COCCOCCOCCOCCOCCOCCOCCOCCOCCNC(=O)c1c(C)[nH]c(/C=C2\\C(=O)Nc3ccc(F)cc32)c1C", 102]
]}

Kindly consider the entry below.
Kindly note: c-Kit (Homo sapiens), COCCOCCOCCOCCOCCOCCOCCOCCNC(=O)c1c(C)[nH]c(/C=C2\C(=O)Nc3ccc(F)cc32)c1C , c-Kit AVG % Activity at Specific Concentration value reported: 94

----------
biological target: VEGFR-2 (Homo sapiens); assay: VEGFR-2 kinase inhibition, Caliper screening (fluorescent substrate phosphorylation, electrophoretic separation); conditions: concentration 3.0E−07 (unit not given)
Each entry below lists one item and its recorded VEGFR-2 AVG % Activity at Specific Concentration value.
Number first, unit second.

Here are 4 compounds together with their reported answers.
{"columns": ["compound", "reading"],
 "data": [
  ["COCCOCCOCCOCCNC(=O)c1c(C)[nH]c(/C=C2\\C(=O)Nc3ccc(F)cc32)c1C [mPEG4-semaxanib]", "35%"],
  ["COCCOCCOCCOCCOCCOCCOCCOCCOCCNC(=O)c1c(C)[nH]c(/C=C2\\C(=O)Nc3ccc(F)cc32)c1C [mPEG9-semaxanib]", "46%"],
  ["COCCOCCOCCOCCOCCOCCOCCOCCNC(=O)c1c(C)[nH]c(/C=C2\\C(=O)Nc3ccc(F)cc32)c1C [mPEG8-semaxanib]", "50%"],
  ["COCCOCCOCCOCCOCCOCCOCCNC(=O)c1c(C)[nH]c(/C=C2\\C(=O)Nc3ccc(F)cc32)c1C [mPEG7-semaxanib]", "46%"]
]}

The compound listed as COCCOCCOCCNC(=O)c1c(C)[nH]c(/C=C2\C(=O)Nc3ccc(F)cc32)c1C [mPEG3-semaxanib] shows VEGFR-2 AVG % Activity at Specific Concentration equal to 16%

----------
biological target: VEGFR-2 (Homo sapiens); test: VEGFR-2 kinase inhibition, Caliper screening (fluorescent substrate phosphorylation, electrophoretic separation); conditions: concentration 3.0E−05 (unit not given)
Each entry below lists one item and its recorded VEGFR-2 AVG % Activity at Specific Concentration value.
Give just the number in %; leave the unit off.

Here are 4 molecules together with their reported answers.
{"columns": ["smiles representation", "reading"],
 "data": [
  ["COCCOCCOCCOCCNC(=O)c1c(C)[nH]c(/C=C2\\C(=O)Nc3ccc(F)cc32)c1C", "−6"],
  ["COCCOCCOCCNC(=O)c1c(C)[nH]c(/C=C2\\C(=O)Nc3ccc(F)cc32)c1C", "−6"],
  ["COCCOCCOCCOCCOCCOCCOCCOCCNC(=O)c1c(C)[nH]c(/C=C2\\C(=O)Nc3ccc(F)cc32)c1C", "−6"],
  ["COCCOCCOCCOCCOCCOCCOCCNC(=O)c1c(C)[nH]c(/C=C2\\C(=O)Nc3ccc(F)cc32)c1C", "−6"]
]}

The molecule listed as COCCOCCOCCOCCOCCOCCOCCOCCOCCNC(=O)c1c(C)[nH]c(/C=C2\C(=O)Nc3ccc(F)cc32)c1C shows VEGFR-2 AVG % Activity at Specific Concentration equal to −1

----------
molecular target: UniProtKB P07949; experiment: RET kinase inhibition, Caliper screening (fluorescent substrate phosphorylation, electrophoretic separation); details: concentration 1.0E−05 (unit not given)
endpoint name: RET AVG % Activity at Specific Concentration (%)
Give just the number in %; leave the unit off.

Here are 5 compounds together with their reported answers.
{"columns": ["compound", "scale unit", "reading"],
 "data": [
  ["COCCOCCOCCOCCOCCOCCOCCNC(=O)c1c(C)[nH]c(/C=C2\\C(=O)Nc3ccc(F)cc32)c1C [mPEG7-semaxanib]", "%", 2],
  ["COCCOCCOCCOCCOCCOCCOCCOCCNC(=O)c1c(C)[nH]c(/C=C2\\C(=O)Nc3ccc(F)cc32)c1C [mPEG8-semaxanib]", "%", 5],
  ["COCCOCCOCCOCCOCCOCCOCCOCCOCCNC(=O)c1c(C)[nH]c(/C=C2\\C(=O)Nc3ccc(F)cc32)c1C [mPEG9-semaxanib]", "%", 5],
  ["COCCOCCOCCOCCNC(=O)c1c(C)[nH]c(/C=C2\\C(=O)Nc3ccc(F)cc32)c1C [mPEG4-semaxanib]", "%", 0],
  ["COCCOCCOCCOCCOCCNC(=O)c1c(C)[nH]c(/C=C2\\C(=O)Nc3ccc(F)cc32)c1C [mPEG5-semaxanib]", "%", 0]
]}

Kindly consider the entry below.
The compound listed as COCCOCCOCCNC(=O)c1c(C)[nH]c(/C=C2\C(=O)Nc3ccc(F)cc32)c1C [mPEG3-semaxanib] shows RET AVG % Activity at Specific Concentration equal to −1
